Molecular target: COX-1 (Ovis aries, UniProt P05979)
Construct: purchased Sigma-Aldrich C0733-5000UN
Sequence (P05979 25-600): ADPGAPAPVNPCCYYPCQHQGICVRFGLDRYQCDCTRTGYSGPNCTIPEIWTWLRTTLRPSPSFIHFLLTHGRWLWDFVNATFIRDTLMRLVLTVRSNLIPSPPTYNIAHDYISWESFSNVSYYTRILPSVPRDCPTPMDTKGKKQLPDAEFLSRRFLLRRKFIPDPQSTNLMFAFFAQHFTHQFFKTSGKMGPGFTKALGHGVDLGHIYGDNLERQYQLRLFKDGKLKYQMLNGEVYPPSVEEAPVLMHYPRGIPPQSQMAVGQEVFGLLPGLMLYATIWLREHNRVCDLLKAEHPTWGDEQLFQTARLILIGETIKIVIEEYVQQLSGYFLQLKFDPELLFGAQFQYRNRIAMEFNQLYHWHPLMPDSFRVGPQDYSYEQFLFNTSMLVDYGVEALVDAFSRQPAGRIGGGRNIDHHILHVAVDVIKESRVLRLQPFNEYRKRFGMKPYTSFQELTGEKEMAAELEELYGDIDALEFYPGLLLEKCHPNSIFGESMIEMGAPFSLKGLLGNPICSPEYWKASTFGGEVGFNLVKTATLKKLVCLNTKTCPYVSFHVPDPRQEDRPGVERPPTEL
Test: In vitro COX-1 enzyme inhibitory assay
Type: biochemical, sheep
Conditions: mean ± SEM; n = 3
experimental-readout: IC50 (µM)
Numbers only, in µM.

Hey, quick one: what's IC50 for each of these?
1. O=C1NC(C(F)(F)F)=C(c2cc(-c3ccncc3)on2)C(c2ccncc2)N1 (stereo not drawn)
2. COc1ccc(C2NC(=O)NC(C(F)(F)F)=C2c2cc(-c3ccco3)on2)cc1 (stereo not drawn)
3. O=C1NC(C(F)(F)F)=C(c2cc(-c3ccncc3)on2)C(c2ccccc2)N1 (stereo not drawn)
4. Cc1ccc(C2NC(=O)NC(C(F)(F)F)=C2c2cc(-c3ccco3)on2)cc1 (stereo not drawn)

Return:
1: 61.9; 2: 34; 3: 101; 4: 91.2

Give me IC50 for each of these compounds, listed below.
1. COc1ccc(C2NC(=O)NC(C(F)(F)F)=C2c2cc(C)on2)cc1 (stereo not drawn)
2. O=C1NC(C(F)(F)F)=C(c2cc(-c3ccco3)on2)C(c2ccc(C(F)(F)F)cc2)N1 (stereo not drawn)

Return:
172
83.8

---

target: COX-2 (Homo sapiens); construct: purchased Sigma-Aldrich C0858; assay: In vitro COX-2 enzyme inhibitory assay; assay type: biochemical; settings: mean ± SEM; n = 3
Sequence (P35354 18-604): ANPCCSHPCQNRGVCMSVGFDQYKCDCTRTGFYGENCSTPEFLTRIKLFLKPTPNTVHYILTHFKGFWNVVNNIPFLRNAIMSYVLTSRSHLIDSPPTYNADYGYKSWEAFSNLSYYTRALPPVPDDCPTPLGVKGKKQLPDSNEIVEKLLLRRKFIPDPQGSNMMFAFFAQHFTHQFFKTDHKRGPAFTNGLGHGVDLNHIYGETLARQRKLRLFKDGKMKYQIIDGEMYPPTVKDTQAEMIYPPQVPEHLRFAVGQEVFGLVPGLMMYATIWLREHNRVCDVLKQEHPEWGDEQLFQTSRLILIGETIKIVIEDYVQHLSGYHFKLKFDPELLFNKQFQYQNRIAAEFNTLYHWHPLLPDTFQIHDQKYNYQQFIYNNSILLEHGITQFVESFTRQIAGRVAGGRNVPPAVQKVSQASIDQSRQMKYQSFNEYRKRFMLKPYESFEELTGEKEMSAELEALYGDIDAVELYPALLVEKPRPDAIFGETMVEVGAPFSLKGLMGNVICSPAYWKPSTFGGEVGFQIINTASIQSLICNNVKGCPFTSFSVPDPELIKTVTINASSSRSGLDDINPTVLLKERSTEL
experimental-readout: IC50 (µM)
One number for each entry, in µM.

Example results:
>>> reported_result("Cc1ccc(C2NC(=O)NC(C(F)(F)F)=C2c2cc(-c3ccco3)on2)cc1 (stereo not shown)")
0.79
>>> reported_result("O=C1NC(C(F)(F)F)=C(c2cc(-c3ccco3)on2)C(c2ccco2)N1 (stereo not shown)")
0.85

Provide IC50 for all items below, preserving their order.
1. COc1ccc(C2NC(=O)NC(C(F)(F)F)=C2c2cc(-c3ccco3)on2)cc1 (stereo not shown)
2. O=C1NC(C(F)(F)F)=C(c2cc(-c3ccncc3)on2)C(c2ccccc2)N1 (stereo not shown)
3. COc1ccc(C2NC(=O)NC(C(F)(F)F)=C2c2cc(-c3ccccc3)on2)cc1O (stereo not shown)
4. COc1ccc(C2NC(=O)NC(C(F)(F)F)=C2c2cc(-c3ccc(-c4ccccc4)cc3)on2)cc1 (stereo not shown)
5. O=C1NC(C(F)(F)F)=C(c2cc(-c3ccncc3)on2)C(c2ccncc2)N1 (stereo not shown)
6. O=C1NC(C(F)(F)F)=C(c2cc(-c3ccco3)on2)C(c2ccc(C(F)(F)F)cc2)N1 (stereo not shown)
7. COc1ccc(C2NC(=O)NC(C(F)(F)F)=C2c2cc(C)on2)cc1 (stereo not shown)
8. Cc1cc(C2=C(C(F)(F)F)NC(=O)NC2c2ccccc2)no1 (stereo not shown)

Return:
1. 0.55
2. 1.7
3. 0.93
4. 8.27
5. 20
6. 0.74
7. 2.43
8. 2.52
